Recorded values, source the supplement of paper PMC12042874.

ASSAY_COMMENT: amyloid nucleation score (Sup35N fusion, yeast selection) (log enrichment); library NNK2; higher = more nucleation; inactive = no reads after selection;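 note: zero at mode of non-aggregating sequences after 7 days selection at 30°C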
OBSERVED_PROPERTY: amyloid nucleation score

Recorded results for 4 sequences are shown here.
[
  {
    "RECORD_SEQUENCE": "SDRQHNAYNFLFVL",
    "amyloid nucleation score": 4.6
  },
  {
    "RECORD_SEQUENCE": "LWCSDCISTEIIHNQRFA",
    "amyloid nucleation score": -0.152
  },
  {
    "RECORD_SEQUENCE": "MYIRYPFATPYWSFLLGKVT",
    "amyloid nucleation score": -0.117
  },
  {
    "RECORD_SEQUENCE": "KCNVMRQMRFMLPFTVIVVL",
    "amyloid nucleation score": 0.204
  }
]

Sample YFMTKETLHC ; amyloid nucleation score observed: -1.64

Sample RANGSSYEREVA ; amyloid nucleation score observed: 0.819
